Target: polyclonal antiserum SERCA PS-38
Assay: Peptide inhibition of antiserum SERCA PS-38 binding to antigen
Design: species or system rabbit
Conditions: competition against polyclonal antiserum SERCA PS-38; read-out: inhibition of antibody binding to antigen (IC50)
Where no end group is shown, it is not given here. [ ]: non-standard residue; d: D form. pS = N[C@@H](COP(=O)(O)O)C(=O)O
Assay Readout: IC50 (µM)
Numbers only, in µM.

// query Query: IC50; subject: 31KLKERWGS(PO4)NEL41 (KLKERWG[pS]NEL; UniProt P16615 31-41, looked up, fragment) [phosphopeptide]
// result 0.018
